The reported measurements were obtained from patent US11427558B1.

measured.target: Recombinant wild type LRRK2 protein (Homo sapiens (Human), UniProt Q5S007)
Sequence (Q5S007 whole entry): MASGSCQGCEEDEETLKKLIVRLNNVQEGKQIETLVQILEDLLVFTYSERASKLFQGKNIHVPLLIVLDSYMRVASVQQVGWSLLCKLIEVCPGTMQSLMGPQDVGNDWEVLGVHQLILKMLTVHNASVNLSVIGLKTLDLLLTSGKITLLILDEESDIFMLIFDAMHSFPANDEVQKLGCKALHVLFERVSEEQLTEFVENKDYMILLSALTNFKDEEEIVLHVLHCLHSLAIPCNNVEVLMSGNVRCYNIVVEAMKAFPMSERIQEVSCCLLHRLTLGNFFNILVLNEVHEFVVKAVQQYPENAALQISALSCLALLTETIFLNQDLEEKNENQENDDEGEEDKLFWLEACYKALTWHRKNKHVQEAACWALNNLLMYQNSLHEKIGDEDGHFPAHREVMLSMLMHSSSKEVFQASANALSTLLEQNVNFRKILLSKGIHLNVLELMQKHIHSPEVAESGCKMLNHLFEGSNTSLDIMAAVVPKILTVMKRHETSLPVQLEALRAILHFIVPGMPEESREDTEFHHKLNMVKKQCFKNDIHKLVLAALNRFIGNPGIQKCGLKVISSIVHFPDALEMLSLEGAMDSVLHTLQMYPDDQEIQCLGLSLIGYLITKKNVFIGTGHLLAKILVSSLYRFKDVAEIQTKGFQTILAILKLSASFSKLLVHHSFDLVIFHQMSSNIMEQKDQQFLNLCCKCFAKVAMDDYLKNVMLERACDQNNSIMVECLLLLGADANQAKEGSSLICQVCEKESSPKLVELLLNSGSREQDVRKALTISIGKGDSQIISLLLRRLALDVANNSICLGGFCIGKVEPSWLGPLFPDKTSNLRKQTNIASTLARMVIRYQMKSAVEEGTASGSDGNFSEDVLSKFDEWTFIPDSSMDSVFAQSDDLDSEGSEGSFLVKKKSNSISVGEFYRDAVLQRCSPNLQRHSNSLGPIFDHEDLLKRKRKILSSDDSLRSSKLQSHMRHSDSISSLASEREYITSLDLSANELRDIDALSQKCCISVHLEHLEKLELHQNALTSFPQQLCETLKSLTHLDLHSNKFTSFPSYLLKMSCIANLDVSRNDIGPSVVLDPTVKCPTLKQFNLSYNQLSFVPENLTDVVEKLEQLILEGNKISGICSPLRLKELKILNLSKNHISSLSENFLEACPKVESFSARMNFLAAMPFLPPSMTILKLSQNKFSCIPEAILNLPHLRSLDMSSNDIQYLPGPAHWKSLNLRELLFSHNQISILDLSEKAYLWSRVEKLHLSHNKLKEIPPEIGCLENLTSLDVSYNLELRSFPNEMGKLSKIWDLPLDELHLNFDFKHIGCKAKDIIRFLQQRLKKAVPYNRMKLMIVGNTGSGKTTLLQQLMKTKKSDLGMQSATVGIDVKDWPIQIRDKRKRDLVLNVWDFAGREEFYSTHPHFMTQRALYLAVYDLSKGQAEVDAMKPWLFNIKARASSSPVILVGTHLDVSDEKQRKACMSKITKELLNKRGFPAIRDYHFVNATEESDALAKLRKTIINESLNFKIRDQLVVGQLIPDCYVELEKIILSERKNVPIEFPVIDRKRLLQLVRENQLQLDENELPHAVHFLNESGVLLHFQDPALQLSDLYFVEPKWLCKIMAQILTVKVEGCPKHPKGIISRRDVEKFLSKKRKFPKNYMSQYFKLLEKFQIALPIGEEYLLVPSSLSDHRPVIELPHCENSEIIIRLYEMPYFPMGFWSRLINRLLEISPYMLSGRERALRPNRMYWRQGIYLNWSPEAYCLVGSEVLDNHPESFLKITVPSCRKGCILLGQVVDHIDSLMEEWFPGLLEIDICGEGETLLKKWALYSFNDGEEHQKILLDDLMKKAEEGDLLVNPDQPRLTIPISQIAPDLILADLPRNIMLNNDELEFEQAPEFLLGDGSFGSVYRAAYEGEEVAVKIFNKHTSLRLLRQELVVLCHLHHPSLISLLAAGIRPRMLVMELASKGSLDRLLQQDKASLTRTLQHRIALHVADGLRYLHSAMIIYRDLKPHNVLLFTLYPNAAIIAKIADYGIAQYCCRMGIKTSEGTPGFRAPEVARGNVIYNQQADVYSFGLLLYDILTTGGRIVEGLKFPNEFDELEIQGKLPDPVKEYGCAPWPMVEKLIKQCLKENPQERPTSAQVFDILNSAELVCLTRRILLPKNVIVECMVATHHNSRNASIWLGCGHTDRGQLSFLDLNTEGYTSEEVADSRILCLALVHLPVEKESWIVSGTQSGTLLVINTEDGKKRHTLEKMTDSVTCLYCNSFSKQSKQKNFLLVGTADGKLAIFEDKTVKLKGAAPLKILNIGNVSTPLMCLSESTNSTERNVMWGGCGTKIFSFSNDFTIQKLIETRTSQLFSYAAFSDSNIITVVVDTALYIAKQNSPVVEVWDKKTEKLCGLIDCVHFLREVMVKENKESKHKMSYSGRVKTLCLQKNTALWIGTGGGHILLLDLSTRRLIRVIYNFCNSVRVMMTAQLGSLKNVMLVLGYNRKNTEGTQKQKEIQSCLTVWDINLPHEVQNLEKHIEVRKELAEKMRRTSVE
assay.remarks: LRRK2 kinase activity, LanthaScreen TR-FRET assay (wild type)
experimental.conditions: LRRKtide 400 nM, 25 μM ATP, 60 min; read-out: LRRK2 WT IC50
Description: LRRK2 kinase activity was measured using a LanthaScreen™ Kinase Activity Assay from ThermoFisher Scientific. Recombinant wild type or G2019S-LRRK2 protein (Life Technologies, PR8604B or PV4881, respectively), was incubated with a fluorescein-labeled peptide substrate called LRRKtide that is based upon ezrin/radixin/moesin (ERM) (Life Technologies, PV4901) in the presence of ATP and serially diluted compound. […]
endpoint.label: IC50

Worked examples follow.
>>> result("N#Cc1cccc(C(=O)Nc2ccc3[nH]nc(-c4ccoc4)c3c2)n1 [Example 127]")
"< 0.1 µM"
>>> result("Cc1nc(C#N)cnc1C(=O)Nc1ccc2[nH]nc(-c3ccoc3)c2c1 [Example 145]")
"< 0.1 µM"
>>> result("Cc1cc(C#N)cnc1C(=O)Nc1ccc2[nH]nc(-c3ccc(N4CCN(C)CC4)cc3)c2c1 [Example 45]")
"< 0.1 µM"
>>> result("COC(C)c1n[nH]c2ccc(NC(=O)c3ncc(C#N)c(C)c3C)cc12 (centres unmarked) [Example 269]")
"> 10 µM"
>>> result("Cc1c(C(=O)Nc2ccc3[nH]nc(C4CC4)c3c2)nc(C2CC2)c(C#N)c1C [Example 334]")
"0.1 to 1 µM"
>>> result("Cc1cc(C#N)cnc1C(=O)Nc1ccc2[nH]nc(-c3ccccn3)c2c1 [Example 114]")
"1 to 10 µM"

Req: I'm curious: which IC50 was measured for Cc1cc(C#N)cnc1C(=O)Nc1ccc2[nH]nc(-c3cccc(C#N)c3)c2c1 [Example 41] tested on Recombinant wild type LRRK2 protein (Homo sapiens (Human), UniProt Q5S007)?
Resp: 0.1 to 1 µM

Req: // map Cc1c(C#N)cnc(C(=O)Nc2ccc3[nH]nc(-c4cccn(C)c4=O)c3c2)c1C [Example 280] to recorded IC50 (system: Recombinant wild type LRRK2 protein (Homo sapiens (Human), UniProt Q5S007))
Resp: 1 to 10 µM

###

measured.target: Recombinant wild type LRRK2 protein (Homo sapiens (Human), UniProt Q5S007)
assay.remarks: LRRK2 kinase activity, LanthaScreen TR-FRET assay (wild type)
Assay type: biochemical
experimental.conditions: LRRKtide 400 nM, 25 μM ATP, 60 min; read-out: LRRK2 WT IC50
Each entry below lists one item and its recorded IC50 value.

>>> result("Cc1cc(C#N)cnc1C(=O)Nc1ccc2[nH]nc(-c3cccc(C4CC4)c3)c2c1")
"0.1 to 1 µM"

Req: # query: IC50 of entry `COc1c(C#N)ccc(C)c1C(=O)Nc1ccc2[nH]nc(C)c2c1`
Resp: 0.1 to 1 µM

Req: Field request: IC50 | item: `COc1c(C#N)cccc1C(=O)Nc1ccc2[nH]nc(-c3ccoc3)c2c1`
Resp: < 0.1 µM

Req: Name the reported IC50 value associated with the compound `Cc1cc(C#N)cnc1C(=O)Nc1ccc2[nH]nc(-c3cccnc3)c2c1`
Resp: 0.1 to 1 µM

Req: Query: IC50; subject: `Cc1nc(C(=O)Nc2ccc3[nH]nc(-c4cnn(C(F)F)c4)c3c2)c(C)c(C)c1C#N`
Resp: < 0.1 µM

Req: Reported IC50 for `Cc1c(C#N)cnc(C(=O)Nc2ccc3[nH]nc(-c4ccnc(N5CCOCC5)c4)c3c2)c1C` : what is it?
Resp: < 0.1 µM

Req: For the compound `COc1n[nH]c2ccc(NC(=O)c3nc(C)c(C#N)c(C)c3C)cc12` , what IC50 is on record?
Resp: 0.1 to 1 µM

Req: I have this compound here, `Cc1cc(C#N)cnc1C(=O)Nc1ccc2[nH]nc(-c3ccc(C(F)(F)F)cc3)c2c1` , and I need its recorded IC50.
Resp: > 10 µM
